Biological target: KRasG12C (M1-K169, biotinylated on the N-terminus) (Homo sapiens (Human), UniProt P01116, G12C)
Assay: Covalent competition assay: scintillation proximity assay (SPA) quantifying covalent modification of KRASG12C
Details: competition with radiolabeled covalent probe (Compound B/Compound A), 2 hours incubation, 10 nM KRasG12C
pIC50: −log10 of the molar value.
Listing of entries alongside the reported pIC50.

[
  {
    "molecule": "C=CC(=O)N1CC2(CC(n3nc(N4CC[C@@H](N(C)C(C)=O)CC4(C)C)c(-c4c(Cl)c(C)cc5[nH]ncc45)c3C)C2)C1 (single isomer, unassigned) [Example 69a]",
    "resultOperator": "=",
    "pIC50": 5.36
  },
  {
    "molecule": "C=CC(=O)N1CC2(CC(n3nc(N4CC[C@@H](CN5CCN(C6COC6)CC5)CC4(C)C)c(-c4c(Cl)ccc5[nH]ncc45)c3C)C2)C1 (single isomer, unassigned) [Example 255b]",
    "resultOperator": "=",
    "pIC50": 7.08
  },
  {
    "molecule": "C=CC(=O)N1CC2(CC(n3nc(N4CC[C@@H](CN5CCOCC5)CC4(C)C)c(-c4c(Cl)c(C)cc5[nH]nc(C)c45)c3C#N)C2)C1 (single isomer, unassigned) [Example 225b]",
    "resultOperator": "<",
    "pIC50": 5.30
  }
]
